Value source: BindingDB's records for doi:10.1016/j.bioorg.2016.04.005

SYSTEM NAME: Urease subunit alpha (Sporosarcina pasteurii)
Sequence (P41020 as listed by the source): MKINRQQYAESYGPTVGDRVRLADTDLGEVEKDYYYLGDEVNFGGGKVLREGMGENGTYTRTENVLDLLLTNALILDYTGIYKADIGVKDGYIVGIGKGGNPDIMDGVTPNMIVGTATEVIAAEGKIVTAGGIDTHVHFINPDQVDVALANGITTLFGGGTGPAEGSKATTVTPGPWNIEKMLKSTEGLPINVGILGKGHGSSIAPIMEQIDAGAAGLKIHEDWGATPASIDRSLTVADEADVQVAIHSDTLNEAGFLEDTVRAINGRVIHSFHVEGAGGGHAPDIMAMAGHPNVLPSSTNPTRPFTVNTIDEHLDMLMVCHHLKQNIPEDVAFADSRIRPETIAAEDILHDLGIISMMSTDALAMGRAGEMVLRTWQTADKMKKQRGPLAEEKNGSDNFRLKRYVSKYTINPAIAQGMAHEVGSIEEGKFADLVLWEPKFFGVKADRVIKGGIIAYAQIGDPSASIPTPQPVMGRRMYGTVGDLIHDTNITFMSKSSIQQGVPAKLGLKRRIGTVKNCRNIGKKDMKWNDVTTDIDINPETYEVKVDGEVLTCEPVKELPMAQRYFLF
PROCEDURE SUMMARY: Urease Inhibition Assay
ASSAY CONDITIONS: 30 °C
For each entry below, report its pIC50 value.
Give only the number. pIC50 is defined as minus log10 of concentration in molar units.

So, CS(=O)(=O)c1c(O)c2ccccc2oc1=O ? Its pIC50 was 4.53

So, O=c1oc2ccccc2c(O)c1S(=O)(=O)c1cccc2ccccc12 ? Its pIC50 was 4.16

So, CCCCCCCCCCCC(=O)c1c(O)c2ccccc2oc1=O [3-Lauroyl-(4-hydroxycoumarin) (6)] ? Its pIC50 was 4.77

So, CCCCCCCCC(=O)c1c(O)c2ccccc2oc1=O [3-Nonanoyl-(4-hydroxycoumarin) (4)] ? Its pIC50 was 4.51

So, COc1cc(C(=O)c2c(O)c3ccccc3oc2=O)cc(OC)c1OC ? Its pIC50 was 4.95

So, NC(N)=S [thiocarbamide] ? Its pIC50 was 4.68

So, CCCCCCCCCC(=O)c1c(O)c2ccccc2oc1=O [3-Decanoyl-(4-hydroxycoumarin) (5)] ? Its pIC50 was 4.89
